tested on: analgesic activity of morphine; test: Tail Flick Test: increase in the analgesic effect of morphine; type: in vivo, rats; conditions: rat, in vivo
Property: Potency ratio relative to morphine alone

- Chemical structure: "O=C(N[C@@H](Cc1c[nH]c2ccccc12)C(=O)O)c1ccc(Cl)c(Cl)c1"
  Potency ratio relative to morphine alone: 2.85

Okay, here is my list. What is Potency ratio relative to morphine alone for each of these?
1. O=C(N[C@@H](Cc1c[nH]c2ccccc12)C(=O)O)OCc1cccc(Cl)c1
2. O=C(N[C@@H](Cc1c[nH]c2ccccc12)C(=O)O)OCc1ccc(Cl)c(Cl)c1
3. O=C(N[C@@H](Cc1c[nH]c2ccccc12)C(=O)O)OCc1ccc(Br)cc1
4. Cc1ccc(COC(=O)N[C@@H](Cc2c[nH]c3ccccc23)C(=O)O)cc1Cl
5. CCc1ccc(C(=O)N[C@@H](Cc2c[nH]c3ccccc23)C(=O)O)cc1
6. O=C(N[C@@H](Cc1c[nH]c2ccccc12)C(=O)O)OCc1ccc(I)cc1

1.71
2.57
2.66
1.86
1.34
1.95

###

test system: tolerance induced by morphine; assay: Antagonism to the development of tolerance to repeated administration of morphine HCl (tail flick); type: in vivo, rats; details: day 6; 3 mg/kg i.p. + morphine HCl 3 mg/kg i.p. (row Morphine: alone)
Property: percentage variation in the latency time, day 6 (%)
Answers are plain numbers, in %.

- Compound: "O=C(N[C@@H](Cc1c[nH]c2ccccc12)C(=O)O)OC(c1ccccc1)c1ccccc1"
  Measured result: 20.02
- Compound: "O=C(N[C@@H](Cc1c[nH]c2ccccc12)C(=O)O)OCc1ccc(F)cc1"
  Measured result: 36.44
- Compound: "CCCCCCc1ccc(C(=O)N[C@@H](Cc2c[nH]c3ccccc23)C(=O)O)cc1"
  Measured result: 21.43

In the following, a different compound is considered.
Hi! What's the reported percentage variation in the latency time, day 6 for CN1CC[C@]23c4c5ccc(O)c4O[C@H]2[C@@H](O)C=C[C@H]3[C@H]1C5 [Morphine, morphine, reference compound] on tolerance induced by morphine?
7.28

###

tested on: analgesic activity of morphine; assay: Tail Flick Test: increase in the analgesic effect of morphine; type: in vivo, rats; conditions: 10'; compound 10 mg/kg i.p. + morphine 2 mg/kg (row Morphine: alone); ± S.E.
Output 1 (yes) for records whose percentage variation in the latency of the pain sensation, 10' is lower than 20%, 0 (no) for records at or above 20%.

These recorded examples may help you get a feel for the data.
- Chemical structure: "CCCCCc1ccc(C(=O)N[C@@H](Cc2c[nH]c3ccccc23)C(=O)O)cc1"
  Assay target: "analgesic activity of morphine"
  Class assignment: "0 (no)"
- Chemical structure: "Cc1ccc(COC(=O)N[C@@H](Cc2c[nH]c3ccccc23)C(=O)O)cc1"
  Assay target: "analgesic activity of morphine"
  Class assignment: "1 (yes)"
- Chemical structure: "O=C(N[C@@H](Cc1c[nH]c2ccccc12)C(=O)O)c1ccc(Cl)cc1"
  Assay target: "analgesic activity of morphine"
  Class assignment: "0 (no)"
- Chemical structure: "O=C(N[C@@H](Cc1c[nH]c2ccccc12)C(=O)O)OCc1cccc(Cl)c1"
  Assay target: "analgesic activity of morphine"
  Class assignment: "0 (no)"
- Chemical structure: "O=C(N[C@@H](Cc1c[nH]c2ccccc12)C(=O)O)OCc1ccc(F)cc1"
  Assay target: "analgesic activity of morphine"
  Class assignment: "0 (no)"

API: the following record is the query input.
Say whether its percentage variation in the latency of the pain sensation, 10' is strictly beneath 20%. Entry: CCCc1ccc(C(=O)N[C@@H](Cc2c[nH]c3ccccc23)C(=O)O)cc1
1 (yes)
